Please provide measured polymerase ribozyme fitness (log ratio) for the entries that follow.
B1: TPR t1 (parent)
chain: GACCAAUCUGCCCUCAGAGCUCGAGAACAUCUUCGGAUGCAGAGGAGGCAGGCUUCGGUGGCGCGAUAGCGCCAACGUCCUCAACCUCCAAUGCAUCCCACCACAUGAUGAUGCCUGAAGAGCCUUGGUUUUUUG

Variants of: B1
Assay: polymerase ribozyme fitness, log enrichment relative to wild type (log ratio); higher = more active; in vitro selection for triplet polymerase activity
// keep it numeric: no unit symbol after the value

Short answer for C34U C115U : polymerase ribozyme fitness (log ratio) was -5.45

// C22G G51A G61U U112G : polymerase ribozyme fitness (log ratio) value = -5.05

The measured polymerase ribozyme fitness (log ratio) associated with G47A C76A C115U reads -3.07

variant U87A A118G , polymerase ribozyme fitness (log ratio) observed: 0.111

Input A46G G113A G120U U133A . Output polymerase ribozyme fitness (log ratio): -3.17

Entry G122A C123G ; polymerase ribozyme fitness (log ratio) = 1.74

Looking up C49U A90G C124A , I found its polymerase ribozyme fitness (log ratio) recorded as 1.48

Notebook: U9A A43C C82G A108G C123G U131A , polymerase ribozyme fitness (log ratio) read as -5.6

Lab note: G19A C64U gave polymerase ribozyme fitness (log ratio) of -2.88

Looking up A90U U106G , I found its polymerase ribozyme fitness (log ratio) recorded as -4.63

Reported polymerase ribozyme fitness (log ratio) for C3A U59G U78A C89A G120U was -3.26
